- System: 327498-153-R-J2-PDC multicell spheroid viability
- protocol details: Anticancer human tumor 327498-153-R-J2-PDC patient-derived uterine carcinosarcoma cell line growth inhibition [IpAb]
- experimental parameters: second compound 1 µM; first compound 10 µM; stronger effect = lower value
Please note: viability, T/C exactly at 9% is F. Only values below 9% get T.

# check: viability, T/C < 9% for CCCS(=O)(=O)Nc1ccc(F)c(C(=O)c2c[nH]c3ncc(-c4ccc(Cl)cc4)cc23)c1F + CCN1CCN(Cc2ccc(Nc3ncc(F)c(-c4cc(F)c5nc(C)n(C(C)C)c5c4)n3)nc2)CC1 F

Does this compound meet the criterion viability, T/C < 9%? C=CC(=O)N1CCN(c2nc(=O)n(-c3c(C)ccnc3C(C)C)c3nc(-c4c(O)cccc4F)c(F)cc23)C(C)C1 (stereo not given) + CCN1CCN(Cc2ccc(Nc3ncc(F)c(-c4cc(F)c5nc(C)n(C(C)C)c5c4)n3)nc2)CC1 F

Dear colleague, could you confirm whether viability, T/C of CC1(C)CCC(CN2CCN(c3ccc(C(=O)NS(=O)(=O)c4ccc(NCC5CCOCC5)c([N+](=O)[O-])c4)c(Oc4cnc5[nH]ccc5c4)c3)CC2)=C(c2ccc(Cl)cc2)C1 + CC(C)NCC(C(=O)N1CCN(c2ncnc3c2C(C)CC3O)CC1)c1ccc(Cl)cc1 falls below 9%? Thanks. T

Is viability, T/C of Cn1ncc(Cl)c1-c1cc(C(=O)NC(CN)Cc2cccc(F)c2)sc1Cl (stereo not given) + CC(C)NCC(C(=O)N1CCN(c2ncnc3c2C(C)CC3O)CC1)c1ccc(Cl)cc1 strictly below 9%? T

Please check: viability, T/C for Cn1nccc1Nc1nccc(-c2ccn(C(CO)c3ccc(Cl)c(F)c3)c(=O)c2)n1 (stereo not given) + CC(C)NCC(C(=O)N1CCN(c2ncnc3c2C(C)CC3O)CC1)c1ccc(Cl)cc1 , strictly under 9% or not? F

Field: below-cutoff. Rule: recorded viability, T/C strictly less than 9%. Subject: Cc1nc(NC(=O)N2CCCC2C(N)=O)sc1-c1ccnc(C(C)(C)C(F)(F)F)c1 (stereo not given) + CCN1CCN(Cc2ccc(Nc3ncc(F)c(-c4cc(F)c5nc(C)n(C(C)C)c5c4)n3)nc2)CC1 F

Find out if reported viability, T/C for CCCS(=O)(=O)Nc1ccc(F)c(C(=O)c2c[nH]c3ncc(-c4ccc(Cl)cc4)cc23)c1F + CC(C)NCC(C(=O)N1CCN(c2ncnc3c2C(C)CC3O)CC1)c1ccc(Cl)cc1 is less than 9% F

Given the entry C=CCn1c(=O)c2cnc(Nc3ccc(N4CCN(C)CC4)cc3)nc2n1-c1cccc(C(C)(C)O)n1 + CC(C)NCC(C(=O)N1CCN(c2ncnc3c2C(C)CC3O)CC1)c1ccc(Cl)cc1 , would its reported viability, T/C be below 9%? T

Lab note: viability, T/C threshold 9%. Does this compound come in strictly under it? Cc1nc(NC(=O)N2CCCC2C(N)=O)sc1-c1ccnc(C(C)(C)C(F)(F)F)c1 (stereo not given) + CC(C)NCC(C(=O)N1CCN(c2ncnc3c2C(C)CC3O)CC1)c1ccc(Cl)cc1 F

* * *

- System: 327498-153-R-J2-PDC multicell spheroid viability
- protocol details: Anticancer human tumor 327498-153-R-J2-PDC cell line growth inhibition [IpAb]; active means viability on the fitted dose curve at most 10% of control; inactive means the rest;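 further: spheroids exposed to agents for 7 days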
- experimental parameters: second compound 1 µM; first compound 3 µM
Respond using exactly one of the listed classes: 1 (yes) for active, 0 (no) for inactive

What is the recorded call for this compound in the test? CC(C)(C)c1cnc(CSc2cnc(NC(=O)C3CCNCC3)s2)o1 + CCN1CCN(Cc2ccc(Nc3ncc(F)c(-c4cc(F)c5nc(C)n(C(C)C)c5c4)n3)nc2)CC1 1 (yes)

So what was the verdict on Cn1cnc2c(F)c(Nc3ccc(Br)cc3Cl)c(C(=O)NOCCO)cc21 + CC(C)NCC(C(=O)N1CCN(c2ncnc3c2C(C)CC3O)CC1)c1ccc(Cl)cc1 in this test? 0 (no)

How did this test come out for CC(C)(C)c1cnc(CSc2cnc(NC(=O)C3CCNCC3)s2)o1 + CC(C)NCC(C(=O)N1CCN(c2ncnc3c2C(C)CC3O)CC1)c1ccc(Cl)cc1 ? 1 (yes)

So what was the verdict on Cn1cnc2c(F)c(Nc3ccc(Br)cc3Cl)c(C(=O)NOCCO)cc21 + CCN1CCN(Cc2ccc(Nc3ncc(F)c(-c4cc(F)c5nc(C)n(C(C)C)c5c4)n3)nc2)CC1 in this test? 0 (no)

* * *

For each record, write down the corresponding pIC50.
- Test system: 327498-153-R-J2-PDC multicell spheroid viability
- protocol details: Anticancer human tumor 327498-153-R-J2-PDC cell line growth inhibition [IpAb];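 further: spheroids exposed to agents for 7 days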
- experimental parameters: curve of first compound; second compound 0.01 µM
Friendly reminder that pIC50 comes from taking -log10 of the concentration in mol/L.

Provide measured pIC50 value, entry: C=CCn1c(=O)c2cnc(Nc3ccc(N4CCN(C)CC4)cc3)nc2n1-c1cccc(C(C)(C)O)n1 + CCN1CCN(Cc2ccc(Nc3ncc(F)c(-c4cc(F)c5nc(C)n(C(C)C)c5c4)n3)nc2)CC1 6.50

Recall and state the measured pIC50 for C=CC(=O)N1CCN(c2nc(=O)n(-c3c(C)ccnc3C(C)C)c3nc(-c4c(O)cccc4F)c(F)cc23)C(C)C1 (stereo not drawn) + CCN1CCN(Cc2ccc(Nc3ncc(F)c(-c4cc(F)c5nc(C)n(C(C)C)c5c4)n3)nc2)CC1 . 6.68

Output pIC50 of Cc1nc(NC(=O)N2CCCC2C(N)=O)sc1-c1ccnc(C(C)(C)C(F)(F)F)c1 (stereo not drawn) + CCN1CCN(Cc2ccc(Nc3ncc(F)c(-c4cc(F)c5nc(C)n(C(C)C)c5c4)n3)nc2)CC1 5.19

Note pIC50 for the compound shown: COc1c(OCCCN2CCOCC2)ccc2c3n(c(=NC(=O)c4cnc(N)nc4)nc12)CCN3 + CCN1CCN(Cc2ccc(Nc3ncc(F)c(-c4cc(F)c5nc(C)n(C(C)C)c5c4)n3)nc2)CC1 7.20

Specify reported pIC50 for the compound shown: Cn1ncnc1[C@H]1c2n[nH]c(=O)c3cc(F)cc(c23)N[C@@H]1c1ccc(F)cc1 + CCN1CCN(Cc2ccc(Nc3ncc(F)c(-c4cc(F)c5nc(C)n(C(C)C)c5c4)n3)nc2)CC1 7.73

// Input: Cn1nccc1Nc1nccc(-c2ccn(C(CO)c3ccc(Cl)c(F)c3)c(=O)c2)n1 (stereo not drawn) + CCN1CCN(Cc2ccc(Nc3ncc(F)c(-c4cc(F)c5nc(C)n(C(C)C)c5c4)n3)nc2)CC1 . Output its pIC50 only. 5.43

Given Cn1cnc2c(F)c(Nc3ccc(Br)cc3Cl)c(C(=O)NOCCO)cc21 + CCN1CCN(Cc2ccc(Nc3ncc(F)c(-c4cc(F)c5nc(C)n(C(C)C)c5c4)n3)nc2)CC1 , respond with its pIC50. 6.72

* * *

- System: 327498-153-R-J2-PDC multicell spheroid viability
- protocol details: Anticancer human tumor 327498-153-R-J2-PDC cell line growth inhibition [IpAb]; active = viability on the fitted dose curve at most 10% of control; inactive = the rest;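 further: spheroids exposed to agents for 7 days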
- experimental parameters: second compound 1 µM; first compound 0.1 µM
The categories you may choose from are active, inactive

Please state the recorded outcome for this compound: Cn1nccc1Nc1nccc(-c2ccn(C(CO)c3ccc(Cl)c(F)c3)c(=O)c2)n1 (stereo not given) + CC(C)NCC(C(=O)N1CCN(c2ncnc3c2C(C)CC3O)CC1)c1ccc(Cl)cc1 inactive

Hello, I am checking results. What call was entered for Cn1ncnc1[C@H]1c2n[nH]c(=O)c3cc(F)cc(c23)N[C@@H]1c1ccc(F)cc1 + CC(C)NCC(C(=O)N1CCN(c2ncnc3c2C(C)CC3O)CC1)c1ccc(Cl)cc1 ? inactive

GET /call?item= CCCS(=O)(=O)Nc1ccc(F)c(C(=O)c2c[nH]c3ncc(-c4ccc(Cl)cc4)cc23)c1F + CCN1CCN(Cc2ccc(Nc3ncc(F)c(-c4cc(F)c5nc(C)n(C(C)C)c5c4)n3)nc2)CC1 returns the recorded outcome of this test. inactive

What call does the record list for Cn1ncc(Cl)c1-c1cc(C(=O)NC(CN)Cc2cccc(F)c2)sc1Cl (stereo not given) + CCN1CCN(Cc2ccc(Nc3ncc(F)c(-c4cc(F)c5nc(C)n(C(C)C)c5c4)n3)nc2)CC1 ? inactive

Dear colleague, could you share the recorded outcome for CC(C)n1nc(-c2ccc3oc(N)nc3c2)c2c(N)ncnc21 + CC(C)NCC(C(=O)N1CCN(c2ncnc3c2C(C)CC3O)CC1)c1ccc(Cl)cc1 when you have a moment? active

* * *

- Tested on: 327498-153-R-J2-PDC multicell spheroid viability
- protocol details: Anticancer human tumor 327498-153-R-J2-PDC cell line growth inhibition [IpAb];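 further: spheroids exposed to agents for 7 days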;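 on viability, T/C: 100% = DMSO vehicle control viability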
- experimental parameters: second compound 1 µM; first compound 0.03 µM; stronger effect = lower value
- Method: Combinatorial screen of targeted agents with ipatasertib and abemaciclib in multi-cell type tumor spheroids […] Compounds. […] If the clinical Cmax for an agent had not been determined, the highest concentration tested was 10 microM. NCI60 Cell Culture. […] The optimal seeding densities for each of the cell lines at each time point assessed were determined prior to performing the concentration response studies. […]
hey, just use True if measured viability, T/C is less than 40%, otherwise False

Is the reported viability, T/C for CC(=O)c1c(C)c2cnc(Nc3ccc(N4CCNCC4)cn3)nc2n(C2CCCC2)c1=O + CCN1CCN(Cc2ccc(Nc3ncc(F)c(-c4cc(F)c5nc(C)n(C(C)C)c5c4)n3)nc2)CC1 strictly below 40%? False

Problem: For the compound CC(C)(C)c1cnc(CSc2cnc(NC(=O)C3CCNCC3)s2)o1 + CCN1CCN(Cc2ccc(Nc3ncc(F)c(-c4cc(F)c5nc(C)n(C(C)C)c5c4)n3)nc2)CC1 , is viability, T/C under 40%? False

Confirm or reject: viability, T/C of Cn1cnc2c(F)c(Nc3ccc(Br)cc3Cl)c(C(=O)NOCCO)cc21 + CCN1CCN(Cc2ccc(Nc3ncc(F)c(-c4cc(F)c5nc(C)n(C(C)C)c5c4)n3)nc2)CC1 lies strictly below 40% False

Problem: For the compound CC(=O)c1c(C)c2cnc(Nc3ccc(N4CCNCC4)cn3)nc2n(C2CCCC2)c1=O + CC(C)NCC(C(=O)N1CCN(c2ncnc3c2C(C)CC3O)CC1)c1ccc(Cl)cc1 , is viability, T/C under 40%? True

Decide: viability, T/C of Cn1cnc2c(F)c(Nc3ccc(Br)cc3Cl)c(C(=O)NOCCO)cc21 + CC(C)NCC(C(=O)N1CCN(c2ncnc3c2C(C)CC3O)CC1)c1ccc(Cl)cc1 strictly below 40%? True

Determine if CC(C)(C)c1cnc(CSc2cnc(NC(=O)C3CCNCC3)s2)o1 + CC(C)NCC(C(=O)N1CCN(c2ncnc3c2C(C)CC3O)CC1)c1ccc(Cl)cc1 shows viability, T/C strictly lower than 40%. False
